- System: PBMC
- test_details: Cytotoxicity against human PBMC cells at 1 to 100 ug/ml after 24 hrs by MTT assay
- Format: cell-based
Numbered stars: 1 amine (or outer) side, 2 acyl side, 3 side chain; on linkers, the order of the positions; unused ones are H or OH. Square brackets hold non-standard residues; d marks the D form. Peptide text beside a SMILES is read from it. GABA(3S-Bn) = O=C(C[C@@H](CN[*:1])Cc1ccccc1)[*:2]; GABA(3R-Bn) = O=C(C[C@H](CN[*:1])Cc1ccccc1)[*:2]
property_name: Activity

[[record]]
molecule = "CC[C@H](C)[C@@H]1NC(=O)[C@H](CC(C)C)NC(=O)C[C@H](Cc2ccccc2)CNC(=O)C[C@@H](Cc2ccccc2)CNC(=O)[C@@H]2CCCN2C(=O)[C@@H]2CCCN2C(=O)[C@H](C(C)C)NC(=O)[C@H](CC(C)C)NC(=O)[C@H]([C@@H](C)CC)NC1=O (cyclo(IILVPP[GABA(3R-Bn)][GABA(3S-Bn)]L))"
measured_target = "PBMC"
property_name = "Activity"
result = "Dose-dependent effect"

[[record]]
molecule = "CC[C@H](C)[C@@H]1NC(=O)[C@H](CC(C)C)NC(=O)[C@H](Cc2ccccc2)NC(=O)C[C@@H](Cc2ccccc2)CNC(=O)[C@@H]2CCCN2C(=O)[C@@H]2CCCN2C(=O)[C@H](C(C)C)NC(=O)[C@H](CC(C)C)NC(=O)[C@H]([C@@H](C)CC)NC1=O (cyclo(FLIILVPP[GABA(3R-Bn)]))"
measured_target = "PBMC"
property_name = "Activity"
result = "Dose-dependent effect"


----------
- test_details: Retention time of the compound
- Type: physicochemical
Numbered stars: 1 amine (or outer) side, 2 acyl side, 3 side chain; on linkers, the order of the positions; unused ones are H or OH. Square brackets hold non-standard residues; d marks the D form. Peptide text beside a SMILES is read from it. GABA(3S-Bn) = O=C(C[C@@H](CN[*:1])Cc1ccccc1)[*:2]; GABA(3R-Bn) = O=C(C[C@H](CN[*:1])Cc1ccccc1)[*:2]
Provide the reported Retention_time of each item.
One number for each entry, in min.

[[record]]
molecule = "CC[C@H](C)[C@@H]1NC(=O)[C@H](CC(C)C)NC(=O)C[C@H](Cc2ccccc2)CNC(=O)[C@H](Cc2ccccc2)NC(=O)[C@@H]2CCCN2C(=O)[C@@H]2CCCN2C(=O)[C@H](C(C)C)NC(=O)[C@H](CC(C)C)NC(=O)[C@H]([C@@H](C)CC)NC1=O (cyclo(F[GABA(3S-Bn)]LIILVPP))"
number = 11.63


Value sought for every listed molecule: Retention_time.
1. CC[C@H](C)[C@H](N)C(=O)N[C@H](C(=O)N[C@@H](CC(C)C)C(=O)N[C@H](C(=O)N1CCC[C@H]1C(=O)N1CCC[C@H]1C(=O)NC[C@@H](CC(=O)NC[C@H](CC(=O)N[C@@H](CC(C)C)C(=O)O)Cc1ccccc1)Cc1ccccc1)C(C)C)[C@@H](C)CC (H-IILVPP[GABA(3R-Bn)][GABA(3S-Bn)]L-OH)
2. CC[C@H](C)[C@H](N)C(=O)N[C@H](C(=O)N[C@@H](CC(C)C)C(=O)N[C@H](C(=O)N1CCC[C@H]1C(=O)N1CCC[C@H]1C(=O)NC[C@@H](CC(=O)N[C@@H](Cc1ccccc1)C(=O)N[C@@H](CC(C)C)C(=O)O)Cc1ccccc1)C(C)C)[C@@H](C)CC (H-IILVPP[GABA(3R-Bn)]FL-OH)

[13.085, 13.383]

FYI, the data here is from ChEMBL document CHEMBL3352129.
